Experimental details: In vivo biodistribution in mice
Design: species or system normal CD-1 male mice
Condition summary: iv, 2 min post injection
Procedure: Biodistribution experiments were performed by intravenously administering ^68Ga labeled 1a-h, 2, 3, BPAMD, and [^18F]NaF into normal, healthy male CD-1 mice (25-30 g). The injection activity was 20-30 μCi/animal. […] Organs of interest were harvested, weighed, and counts of radioactivity were measured by a gamma counter. The biodistribution of each sample was calculated as a percentage of the injected dose per gram of wet tissue weight (% ID/g). […]
Could you please report measured Biodistribution: Kidney for the items listed next?
Give bare numbers, in % dose/g.

Compound	Meas value
O=C([O-])CN(CCN(CC(=O)[O-])Cc1cc(CCC(=O)NC(P(=O)(O)O)P(=O)(O)O)ccc1[O-])Cc1cc(CCC(=O)NCCNC(=O)CN2CCN(CC(=O)O)CCN(CC(=O)O)CCN(CC(=O)O)CC2)ccc1[O-].[68Ga+3] [[^68Ga]1h]	18.2
O=C([O-])CN(CCN(CC(=O)[O-])Cc1cc(CCC(=O)N[C@@H](CCC(=O)O)C(=O)O)ccc1[O-])Cc1cc(CCC(=O)NC(P(=O)(O)O)P(=O)(O)O)ccc1[O-].[68Ga+3] [[^68Ga]1f]	24.7

Could you report Biodistribution: Kidney for every entry in the following list?
1. O=C(O)CN1CCN(CC(=O)O)CCN(CC(=O)NC(P(=O)(O)O)P(=O)(O)O)CCN(CC(=O)O)CC1.[68Ga] [[^68Ga]BPAMD, reference compound]
2. [18F-].[Na+] [[^18F]NaF, reference compound]

RESULT:
1. 22.1
2. 10.4
